# measured-target: MCR-1 (Homo sapiens, UniProt Q01726)
# Construct: expressed in transfected cells; host or cells: HEK 293
# Sequence (Q01726 whole entry): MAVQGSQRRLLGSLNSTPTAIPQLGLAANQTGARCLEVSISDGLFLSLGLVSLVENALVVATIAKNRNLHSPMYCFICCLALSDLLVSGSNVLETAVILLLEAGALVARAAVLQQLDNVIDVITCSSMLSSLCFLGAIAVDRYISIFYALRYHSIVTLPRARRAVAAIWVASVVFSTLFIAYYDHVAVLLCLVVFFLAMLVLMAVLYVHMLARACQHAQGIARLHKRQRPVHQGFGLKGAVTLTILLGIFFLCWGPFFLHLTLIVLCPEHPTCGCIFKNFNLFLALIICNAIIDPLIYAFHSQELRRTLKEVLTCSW
# experiment: Melanocortin receptor binding assay, competition with 125I-HP 467, HEK 293 cells expressing hMCR-1
# reported-conditions: inhibition of binding of 125I-HP 467, HEK 293 cells expressing MCR-1; TRG 2414 library; read-out: MC-1 IC50
Classify: 1 when IC50 is strictly less than 10 µM; -1 when IC50 is not.

[[record]]
compound = "CC(C)Cc1ccc(C(C)CNC(CN)CCCCN2Cc3ccccc3C(CNC3CCCCC3)C2c2cc(C(F)(F)F)cc(C(F)(F)F)c2)cc1 (stereo not shown)"
label = -1

[[record]]
compound = "CC(C)Cc1ccc(C(C)CNC(CN)CCCCN2Cc3ccccc3C(CNCc3ccccc3)C2c2ccc(Cl)cc2Cl)cc1 (stereo not shown)"
label = -1

[[record]]
compound = "NCC(CCCCN1Cc2ccccc2C(CNCc2ccccc2)C1c1ccc(Cl)cc1Cl)NCCc1ccccc1 (stereo not shown)"
label = 1

[[record]]
compound = "COc1ccc(CCNCC2c3ccccc3CN(CCCCC(CN)NCC(C)c3ccc(CC(C)C)cc3)C2c2ccc(Cl)cc2Cl)cc1 (stereo not shown)"
label = -1

[[record]]
compound = "NCC(CCCCN1Cc2ccccc2C(CNC2CCCCCC2)C1c1cc(C(F)(F)F)cc(C(F)(F)F)c1)NCCc1ccccc1 (stereo not shown)"
label = -1

[[record]]
compound = "NCC(N)CCCCN1Cc2ccccc2C(CNC2CCCCCC2)C1c1ccc(Cl)cc1Cl (mixture of isomers)"
label = 1

[[record]]
compound = "NCC(N)CCCCN1Cc2ccccc2C(CNCCc2cccc(Cl)c2)C1c1ccc(Oc2ccccc2)cc1 (stereo not shown)"
label = 1

